Tested on: YAP/TAZ
assay.notes: Screening: YAP/TAZ activity reporter (8xGTIIC plasmid) assay in NUGC3 cells (luminescence % of DMSO)
Type: cell-based, human
applied.conditions: NUGC3 cells; luminescence relative to DMSO; concentration not given
# 8×GTIIC per entry
Numbers only here, please. The scale is %.

CCc1ccc(C2CC(c3ccc(C)cc3)=NC2S(C)(=O)=O)cc1 (stereo not drawn)	104.5

Prompt: Value lookup for 8×GTIIC; key = Cc1ccc(C2=NC(S(=O)(=O)c3ccc(C)cc3)C(c3ccccc3C)C2)cc1 (stereo not drawn)
Completion: 97.79

Prompt: Value lookup for 8×GTIIC; key = CCc1cccc(C2CC(c3ccc(C)cc3)=NC2S(=O)(=O)c2ccccc2C)c1CC (stereo not drawn) [PVZF0059]
Completion: 38.46

Prompt: Value lookup for 8×GTIIC; key = CCc1ccc(C2=NC(S(=O)(=O)c3ccccc3)C(c3cccc(CC)c3CC)C2)cc1CC (stereo not drawn)
Completion: 54.38

Prompt: Value lookup for 8×GTIIC; key = CCc1ccccc1C1CC(c2ccc(C)cc2)=NC1S(=O)(=O)c1ccc(C)cc1 (stereo not drawn)
Completion: 40.68

Prompt: Value lookup for 8×GTIIC; key = Cc1ccc(C2=NC(S(=O)(=O)c3ccccc3)C(c3ccc(C)cc3)C2)cc1 (stereo not drawn) [PVZF0073]
Completion: 86.43

Prompt: Value lookup for 8×GTIIC; key = CCc1ccc(C2CC(c3ccc(C)cc3)=NC2S(=O)(=O)c2ccc(C)cc2)cc1 (stereo not drawn)
Completion: 54.44

Prompt: Value lookup for 8×GTIIC; key = CCc1ccc(OC)cc1C1CC(c2ccc(C)cc2)=NC1S(=O)(=O)c1ccc(C)cc1 (stereo not drawn)
Completion: 36.69

Prompt: Value lookup for 8×GTIIC; key = CCc1cccc(C2CC(c3ccccc3)=NC2S(=O)(=O)c2ccccc2)c1CC (stereo not drawn)
Completion: 54.68

---

System: YAP/TAZ
assay.notes: Screening: YAP/TAZ activity reporter (8xGTIIC plasmid) assay in NUGC3 cells (luminescence % of DMSO)
Type: cell-based, human
applied.conditions: YAP/TAZ activity reporter (8×GTIIC), NUGC3 cells, luminescence relative to DMSO; concentration not given
# 8×GTIIC per entry
Numbers only here, please. The scale is %.

Some compounds with recorded 8×GTIIC:
CCOc1cc(S(=O)(=O)C2CCC(NS(=O)(=O)c3ccccc3)CC2)ccc1COC (centres unmarked)	74.98
CC(C)(C)c1ccc(S(=O)(=O)CCC2CCCCC2)cc1	55.45
CC(C)(C)c1ccc(S(=O)(=O)CC2CCCC2)cc1	36.82
Cc1cc(C)c(S(=O)(=O)CC2CC(C)(C)CC(C)(C)C2)cc1C [SA008]	57.06

Prompt: Value lookup for 8×GTIIC; key = CC1CCC(S(=O)(=O)C2CCC(CS(=O)(=O)c3ccccc3)CC2)CC1 (centres unmarked)
Completion: 68.16

---

Tested on: polyglutamine luciferase reporter
assay.notes: Screening: polyglutamine luciferase reporter assay in NUGC3 cells (luminescence % of DMSO)
Assay type: cell-based, human
applied.conditions: NUGC3 cells; luminescence relative to DMSO; concentration not given
The recorded Polyglutamine of each item maps onto one of these classes: zone 1 = under 40%, zone 2 = from 40% up to 60%, zone 3 = 60% and over

Here are 5 molecules together with their reported answers.
CCc1ccccc1C1CC(c2ccc(C)cc2)=NC1S(=O)(=O)c1ccc(C)cc1 (stereo not drawn) [PVZF0091]	zone 1
CC(=O)c1cccc(C2CC(c3ccc(C)cc3)=NC2S(=O)(=O)c2ccccc2)c1 (stereo not drawn) [PVZF0093]	zone 2
CCc1cccc(C2CC(c3ccc(C)cc3)=NC2S(C)(=O)=O)c1 (stereo not drawn) [PVZF0061]	zone 3
CCc1ccccc1C1CC(c2ccc(C)cc2)=NC1S(=O)(=O)c1ccccc1C (stereo not drawn) [PVZF0065]	zone 2
CCc1ccccc1C1CC(c2ccc(C)cc2)=NC1S(C)(=O)=O (stereo not drawn) [PVZF0060]	zone 1

Here is the next item to consider.
Prompt: Where would CCc1ccc(C2=NC(S(=O)(=O)c3ccc(C)cc3)C(c3cccc(CC)c3CC)C2)cc1CC (stereo not drawn) [PVZF0081] land among the classes by reported Polyglutamine?
Completion: zone 2

---

Tested on: YAP/TAZ
assay.notes: Screening: YAP/TAZ activity reporter (8xGTIIC plasmid) assay in NUGC3 cells (luminescence % of DMSO)
Type: cell-based, human
applied.conditions: YAP/TAZ activity reporter (8×GTIIC), NUGC3 cells, luminescence relative to DMSO; concentration not given
# 8×GTIIC per entry
Numbers only here, please. The scale is %.

CC(C)(C)c1cccc(S(=O)(=O)C2CCC(CS(=O)(=O)c3ccccc3)CC2)c1 (stereo not shown) [SA016]	53.02

Prompt: Value lookup for 8×GTIIC; key = O=S(=O)(CC1CCCC1)c1ccc(C2CCCCC2)cc1 [PVZF2064]
Completion: 75.47

Prompt: Value lookup for 8×GTIIC; key = CCc1ccc(S(=O)(=O)CC2CCC(S(C)(=O)=O)CC2)cc1CC (stereo not shown) [SA063]
Completion: 93.35

Prompt: Value lookup for 8×GTIIC; key = CC1(C)CC(CS(=O)(=O)c2ccc3ccccc3c2)CC(C)(C)C1 [PVZF2018]
Completion: 73.29

---

Test system: YAP/TAZ
assay.notes: Screening: YAP/TAZ activity reporter (8xGTIIC plasmid) assay in NUGC3 cells (luminescence % of DMSO)
Format: cell-based, human
applied.conditions: YAP/TAZ activity reporter (8×GTIIC), NUGC3 cells, luminescence relative to DMSO; concentration not given
attribute.measured: 8×GTIIC
Give your result as the value with the unit written after it.

Some molecules with recorded 8×GTIIC:
O=S(=O)(CCC1CCCCC1)c1ccc(-c2ccccc2)cc1 [PVZF2033]	69.36%
O=S(=O)(CCCC1CCCCC1)c1ccc(C2CCCCC2)cc1 [PVZF2071]	70.27%
CC(C)c1cc(C(C)C)c(S(=O)(=O)NCC2CCCNC2)c(C(C)C)c1 (stereo not shown) [PVZF2008]	70.12%

Prompt: Value lookup for 8×GTIIC; key = Cc1ccc(C)c(S(=O)(=O)C2CCC(CS(=O)(=O)c3ccccc3)CC2)c1 (single isomer, unassigned) [SA015]
Completion: 69.21%

---

Tested on: polyglutamine luciferase reporter
assay.notes: Screening: polyglutamine luciferase reporter assay in NUGC3 cells (luminescence % of DMSO)
Assay type: cell-based, human
applied.conditions: NUGC3 cells; luminescence relative to DMSO; concentration not given
# Polyglutamine per entry
Numbers only here, please. The scale is %.

Prompt: # get_value(readout= Polyglutamine, system= polyglutamine luciferase reporter) for CCc1cccc(C2CC(c3ccc(C)cc3)=NC2S(=O)(=O)c2ccccc2C)c1CC (stereo not drawn) [PVZF0051]
Completion: 40.74

Prompt: # get_value(readout= Polyglutamine, system= polyglutamine luciferase reporter) for Cc1ccc(C2=NC(S(=O)(=O)c3ccc(C)cc3)C(c3ccccc3)C2)cc1 (stereo not drawn)
Completion: 60.73

Prompt: # get_value(readout= Polyglutamine, system= polyglutamine luciferase reporter) for Cc1ccc(C2=NC(S(=O)(=O)c3ccccc3C)C(c3ccc(C)cc3)C2)cc1 (stereo not drawn)
Completion: 58.28
